Source: ChEMBL document CHEMBL1128242

tested on: Rattus norvegicus; experiment: Distribution of radioactivity was determined in blood at 3h after intravenous administration of 1,3-Disubstituted Triacylglycerols in rats; format: ADME, organism-based; details: in vivo
Binary call on Distribution of radioactivity with cut-off 0.9 % dose/organ: strictly below means class 1, and equality or higher means class 0.

INSERT INTO results (molecule, answer_label) VALUES
  ('CCCCCCCC/C=C/CCCCCCCC(=O)OC(COC(=O)CCCCCc1c(I)cc(I)c(N)c1I)COC(=O)CCCCCc1c(I)cc(I)c(N)c1I', 'class 0'),
  ('CCCCCCCC/C=C/CCCCCCCC(=O)OC(COC(=O)Cc1c(I)cc(I)c(N)c1I)COC(=O)Cc1c(I)cc(I)c(N)c1I', 'class 1'),
  ('CCCCCCCC/C=C/CCCCCCCC(=O)OC(COC(=O)CCc1c(I)cc(I)c(N)c1I)COC(=O)CCc1c(I)cc(I)c(N)c1I', 'class 1');

Input CCCCCCCC/C=C/CCCCCCCC(=O)OC(COC(=O)CCCCCCc1c(I)cc(I)c(N)c1I)COC(=O)CCCCCCc1c(I)cc(I)c(N)c1I ; condition: Distribution of radioactivity strictly below 0.9 % dose/organ. Does it hold?
class 0

Now try CCCCCCCC/C=C/CCCCCCCC(=O)OC(COC(=O)C(CC)Cc1c(I)cc(I)c(N)c1I)COC(=O)C(CC)Cc1c(I)cc(I)c(N)c1I (configuration not stated) .
class 1

---

test system: Rattus norvegicus; test: Distribution of radioactivity was determined in liver at 3h after intravenous administration of [125I]-labeled 2-oleoglycerol 1,3-Bis-[omega-(3-amino-2,4,6-triiodophenyl)alkanoates] in rats; format: ADME, organism-based; conditions: in vivo
Parameter Measured: Distribution of radioactivity (% dose/g)
State the answer as a number, implicitly in % dose/g.

Worked examples follow.
INSERT INTO assay_data (compound, reported_result) VALUES
  ('CCCCCCCC/C=C/CCCCCCCC(=O)OC(COC(=O)CCCCCCc1c(I)cc(I)c(N)c1I)COC(=O)CCCCCCc1c(I)cc(I)c(N)c1I', 5.84),
  ('CCCCCCCC/C=C/CCCCCCCC(=O)OC(COC(=O)Cc1c(I)cc(I)c(N)c1I)COC(=O)Cc1c(I)cc(I)c(N)c1I', 10.3),
  ('CCCCCCCC/C=C/CCCCCCCC(=O)OC(COC(=O)CCCCc1c(I)cc(I)c(N)c1I)COC(=O)CCCCc1c(I)cc(I)c(N)c1I', 6.94),
  ('CCCCCCCC/C=C/CCCCCCCC(=O)OC(COC(=O)C(CC)Cc1c(I)cc(I)c(N)c1I)COC(=O)C(CC)Cc1c(I)cc(I)c(N)c1I (configuration not stated)', 9),
  ('CCCCCCCC/C=C/CCCCCCCC(=O)OC(COC(=O)CCCc1c(I)cc(I)c(N)c1I)COC(=O)CCCc1c(I)cc(I)c(N)c1I', 13.8),
  ('CCCCCCCC/C=C/CCCCCCCC(=O)OC(COC(=O)CCCCCc1c(I)cc(I)c(N)c1I)COC(=O)CCCCCc1c(I)cc(I)c(N)c1I', 8.74);

Return Distribution of radioactivity measured with Rattus norvegicus given this compound: CCCCCCCC/C=C/CCCCCCCC(=O)OC(COC(=O)CCc1c(I)cc(I)c(N)c1I)COC(=O)CCc1c(I)cc(I)c(N)c1I
10.9

---

tested on: Rattus norvegicus; experiment: Distribution of radioactivity was determined in blood at 30 min after intravenous administration of 1,3-Disubstituted Triacylglycerols in rats; assay type: ADME, organism-based; conditions: in vivo, 0.5 h
Distribution of radioactivity values, listed per item
Output spec: scalar in % dose/organ, unitless text.

Take a look at these entries with their results.
INSERT INTO results (molecule, reported_result) VALUES
  ('CCCCCCCC/C=C/CCCCCCCC(=O)OC(COC(=O)CCCCCc1c(I)cc(I)c(N)c1I)COC(=O)CCCCCc1c(I)cc(I)c(N)c1I', 4.8),
  ('CCCCCCCC/C=C/CCCCCCCC(=O)OC(COC(=O)C(CC)Cc1c(I)cc(I)c(N)c1I)COC(=O)C(CC)Cc1c(I)cc(I)c(N)c1I (configuration not stated)', 2.6),
  ('CCCCCCCC/C=C/CCCCCCCC(=O)OC(COC(=O)CCCCc1c(I)cc(I)c(N)c1I)COC(=O)CCCCc1c(I)cc(I)c(N)c1I', 0.9),
  ('CCCCCCCC/C=C/CCCCCCCC(=O)OC(COC(=O)CCc1c(I)cc(I)c(N)c1I)COC(=O)CCc1c(I)cc(I)c(N)c1I', 5.1),
  ('CCCCCCCC/C=C/CCCCCCCC(=O)OC(COC(=O)CCCc1c(I)cc(I)c(N)c1I)COC(=O)CCCc1c(I)cc(I)c(N)c1I', 5.8);

Entry CCCCCCCC/C=C/CCCCCCCC(=O)OC(COC(=O)CCCCCCc1c(I)cc(I)c(N)c1I)COC(=O)CCCCCCc1c(I)cc(I)c(N)c1I : reported Distribution of radioactivity = ?
6.6

What would you report for CCCCCCCC/C=C/CCCCCCCC(=O)OC(COC(=O)Cc1c(I)cc(I)c(N)c1I)COC(=O)Cc1c(I)cc(I)c(N)c1I ?
7.6

---

system: Rattus norvegicus; experiment: Distribution of radioactivity was determined in spleen at 30 min after intravenous administration of [125I]-labeled 2-oleoglycerol 1,3-Bis-[omega-(3-amino-2,4,6-triiodophenyl)alkanoates] in rats; type: ADME, organism-based; conditions: in vivo, 0.5 h
# Lookup of reported Distribution of radioactivity keyed by entry
Numbers only; they are read as % dose/g.

Example entries and their recorded answers appear below.
INSERT INTO assay_data (molecule, unit_annotation, reported_result) VALUES
  ('CCCCCCCC/C=C/CCCCCCCC(=O)OC(COC(=O)Cc1c(I)cc(I)c(N)c1I)COC(=O)Cc1c(I)cc(I)c(N)c1I', '% dose/g', 23.4),
  ('CCCCCCCC/C=C/CCCCCCCC(=O)OC(COC(=O)CCc1c(I)cc(I)c(N)c1I)COC(=O)CCc1c(I)cc(I)c(N)c1I', '% dose/g', 27.6);

Could you share which Distribution of radioactivity value was measured for CCCCCCCC/C=C/CCCCCCCC(=O)OC(COC(=O)CCCCc1c(I)cc(I)c(N)c1I)COC(=O)CCCCc1c(I)cc(I)c(N)c1I ?
17.9

Now give it for CCCCCCCC/C=C/CCCCCCCC(=O)OC(COC(=O)CCCCCc1c(I)cc(I)c(N)c1I)COC(=O)CCCCCc1c(I)cc(I)c(N)c1I too.
24.4

Check CCCCCCCC/C=C/CCCCCCCC(=O)OC(COC(=O)C(CC)Cc1c(I)cc(I)c(N)c1I)COC(=O)C(CC)Cc1c(I)cc(I)c(N)c1I (stereo not given) too.
24.8
